Tested on: hepatocellular carcinoma HepG2 cell line
assay comment: MTT growth inhibition, HepG2
Assay type: cell-based
measurement setup: Homo sapiens, MTT test, 96-well plate, serial dilution, spread in brackets
Reported IC50 values for the following compounds.
Field: numeric (µg/mL). Do not append units.

Some compounds with recorded IC50:
| compound | IC50 [µg/mL] |
| --- | --- |
| CNCC1CC2c3c(Cl)cccc3C1c1cccc(Cl)c12 (stereo not shown) | 13.8 |
| CNCC1CC2c3cccc(Cl)c3C1c1c(Cl)cccc12 (stereo not shown) | 12.7 |
| O=CC1CC2c3c(Cl)cccc3C1c1cccc(Cl)c12 (stereo not shown) | 0.65 |

# ---- query compound ----
The compound listed as O=CC1CC2c3cccc(Cl)c3C1c1c(Cl)cccc12 (stereo not shown) shows IC50 equal to 0.12
